T/C values for the compounds below.
# Test system: P388 leukemia ip, CD2F1 mice, survival T/C
# test: NCI In Vivo Anticancer Drug Screen. Data for tumor model P388 Leukemia (intraperitoneal) in CD2F1 (CDF1) mice
# recorded conditions: endpoint: median survival time; dose: 200.0 mg/kg/injection; schedule: Q01DX009 (ip); vehicle: saline; higher = longer survival
Inconclusive results and toxic doses are left out.

Below: 2 compounds and their reported T/C.
> print(dat)
                             compound                              assay.target       assay.value
1  NCCSCC(N)C(=O)O (stereo not drawn)  P388 leukemia ip, CD2F1 mice, survival T/C  109 % of control
2                           CN=C(N)NN  P388 leukemia ip, CD2F1 mice, survival T/C   97 % of control

May I ask what T/C has been recorded for `CCCc1[nH]n(-c2cccc([N+](=O)[O-])c2)c(=O)c1N=Nc1ccc(Cl)cc1` ?
87 % of control

May I ask what T/C has been recorded for `CCOC(=O)CS(=O)(=O)CCCCCCCCCCS(=O)(=O)CC(=O)OCC` ?
89 % of control

May I ask what T/C has been recorded for COC(=N)CCNC(=O)C(O)C(O)C(=O)NCCC(=N)OC (stereo not drawn) ?
105 % of control

May I ask what T/C has been recorded for `FC(F)(F)c1cccc(N=Cc2ccc(C=Nc3cccc(C(F)(F)F)c3)cc2)c1` ?
97 % of control

====

# Test system: P388 leukemia ip, CD2F1 mice, survival T/C
# test: NCI In Vivo Anticancer Drug Screen. Data for tumor model P388 Leukemia (intraperitoneal) in CD2F1 (CDF1) mice
# recorded conditions: endpoint: median survival time; dose: 15.0 mg/kg/injection; schedule: Q01DX005 (ip); vehicle: saline with Tween-80; higher = longer survival
Inconclusive results and toxic doses are left out.
T/C values for the molecules below.

> print(dat)
                                   molecule       assay.value
1                       COc1nc(Cl)cn(C)c1=O  101 % of control
2   COc1ccc2c(=O)c(Cc3c[nH]c4ccccc34)coc2c1   93 % of control
3  CN(C)CCOC(=O)Nc1ccc(Cc2ccc(NC(=O)OCCN(C)C)cc2)cc1  109 % of control

May I ask what T/C has been recorded for CC1=CC2N(C=C1)C(c1ccccc1)=NON2c1cc(C)ccn1 (stereo not given) ?
94 % of control

May I ask what T/C has been recorded for OCC12C=COC1OC2(c1ccccc1)c1ccccc1 (stereo not given) ?
100 % of control

====

# Tested on: P388 leukemia ip, CD2F1 mice, survival T/C
# test: NCI In Vivo Anticancer Drug Screen. Data for tumor model P388 Leukemia (intraperitoneal) in CD2F1 (CDF1) mice
# recorded conditions: endpoint: median survival time; dose: 50.0 mg/kg/injection; schedule: Q04DX002 (ip); vehicle: saline with Tween-80; higher = longer survival
Toxic doses and inconclusive results are not listed.
measurement label: T/C

> print(dat)
                                   molecule  measurement.label       assay.value
1  CC(C)C(Nc1ncnc2c1CCc1ccccc1-2)C(=O)O (configuration not stated)                T/C   95 % of control
2    CN=C(N)N/N=C(\C)c1ccc2c(ccc3ccccc32)c1                T/C  123 % of control
3  CCOC(=O)/C(=C\c1ccccc1)O/C(=C/c1ccccc1)C(=O)OCC                T/C   99 % of control
4  C/C(=N\NC(N)=S)c1ccc2c(c1)Cc1cc(/C(C)=N/NC(N)=S)ccc1-2                T/C   92 % of control
5  CCO/C([O-])=C(/C(=N/S(=O)(=O)c1ccc(C)cc1)SC)[n+]1ccccc1                T/C   99 % of control

Record `O=c1[nH]c2n[nH]c(=S)n2c2c1CCC2` : what is its T/C with P388 leukemia ip, CD2F1 mice, survival T/C?
99 % of control

Record `c1csc(SSc2nccs2)n1` : what is its T/C with P388 leukemia ip, CD2F1 mice, survival T/C?
103 % of control

====

# System: P388 leukemia ip, CD2F1 mice, survival T/C
# test: NCI In Vivo Anticancer Drug Screen. Data for tumor model P388 Leukemia (intraperitoneal) in CD2F1 (CDF1) mice
# recorded conditions: endpoint: median survival time; dose: 50.0 mg/kg/injection; schedule: Q01DX001 (ip); vehicle: Klucel (hydroxypropylcellulose) (HPC); higher = longer survival
Toxic doses and inconclusive results are not listed.
T/C values for the compounds below.

Below: 4 compounds and their reported T/C.
> print(dat)
                            compound.smiles       assay.value
1    Nn1c(N/N=C\c2ccccc2)nnc1N/N=C/c1ccccc1  113 % of control
2  O=C(NCCNC(=S)Nc1ccccc1)C(=O)NCCNC(=S)Nc1ccccc1   91 % of control
3                   CCCCOP(O)(=S)OCCCC.[Fe]  102 % of control
4  Nc1[nH]c(=S)[nH]c(=O)c1N=Cc1ccc(Cl)c(Cl)c1  100 % of control

Now for a further compound.
May I ask what T/C has been recorded for `CCOC(=O)CC/C(=C/c1cccc(OC)c1)[N+](=O)[O-]` ?
105 % of control

====

T/C values for the molecules below.
# Test system: P388 leukemia ip, CD2F1 mice, survival T/C
# test: NCI In Vivo Anticancer Drug Screen. Data for tumor model P388 Leukemia (intraperitoneal) in CD2F1 (CDF1) mice
# recorded conditions: endpoint: median survival time; dose: 100.0 mg/kg/injection; schedule: Q04DX002 (ip); vehicle: saline with Tween-80; higher = longer survival
Toxic doses and inconclusive results are not listed.

Below: 5 molecules and their reported T/C.
> print(dat)
                                   molecule  measurement.label      assay.value
1  O=C1C=CC2(C=C1)CCN(C(=O)C(F)(F)F)Cc1cc3c(cc12)OCO3                T/C  97 % of control
2  CC(C)SCNc1ncnc2c1ncn2C1OC(CO)C(O)C1O (configuration not stated)                T/C  98 % of control
3  O=C1C(C(=Nc2ccc3ccccc3c2)c2ccccc2)=C(O)c2ccccc21                T/C  89 % of control
4           O=C1c2ccccc2C(=O)C1(Br)c1ccccc1                T/C  99 % of control
5        c1ccc(-c2ncc3n(-c4ccccc4)cnn23)cc1                T/C  95 % of control

May I ask what T/C has been recorded for `CCO/C([O-])=C(/C(=N/S(=O)(=O)c1ccc(C)cc1)SC)[n+]1ccccc1` ?
99 % of control

May I ask what T/C has been recorded for CC1C(=O)OC2C1CCC1(C)C=C(Cl)C(=O)C(C)(Cl)C21O (configuration not stated) ?
107 % of control

May I ask what T/C has been recorded for `CN=C(N)N/N=C(\C)c1ccc2c(ccc3ccccc32)c1` ?
123 % of control

May I ask what T/C has been recorded for `CCN(C)c1nc(N(C)C)nc(N(C)C)n1` ?
107 % of control

May I ask what T/C has been recorded for `CCCSc1ccc([N+](=O)[O-])cc1` ?
106 % of control

May I ask what T/C has been recorded for `O=C(N/N=C/c1cc(Cl)cc(Cl)c1[O-])c1ccccc1.O=C(N/N=C/c1cc(Cl)cc(Cl)c1[O-])c1ccccc1.[Fe+2]` ?
98 % of control

May I ask what T/C has been recorded for `O=c1ccnc[nH]1` ?
105 % of control

May I ask what T/C has been recorded for c1ccc2c(c1)CC/C2=N\OCC1CO1 (configuration not stated) ?
102 % of control

May I ask what T/C has been recorded for `NC(=S)n1nc(-c2ccccc2)c(N=Nc2cc(Cl)ccc2Cl)c1-c1ccccc1` ?
89 % of control

====

# Test system: P388 leukemia ip, CD2F1 mice, survival T/C
# test: NCI In Vivo Anticancer Drug Screen. Data for tumor model P388 Leukemia (intraperitoneal) in CD2F1 (CDF1) mice
# recorded conditions: endpoint: median survival time; dose: 200.0 mg/kg/injection; schedule: Q01DX005 (ip); vehicle: Klucel (hydroxypropylcellulose) (HPC); higher = longer survival
Toxic doses and inconclusive results are not listed.
measurement label: T/C

> print(dat)
                                 compound      assay.value
1  COc1ccc(-c2c3ccc(=O)c(OC)cc3cn2C)cc1OC  94 % of control

May I ask what T/C has been recorded for NC(Cc1c[nH]c(=O)[nH]c1=O)C(=O)O (configuration not stated) ?
88 % of control

May I ask what T/C has been recorded for COC(=O)C1=C(C(=O)OC)P2(C)(C)OC(c3ccccc3)CN2C1(c1ccccc1)c1ccccc1 (configuration not stated) ?
91 % of control

May I ask what T/C has been recorded for O=C(O)C(Cc1cn(Cc2ccccc2)cn1)NCc1ccccc1 (configuration not stated) ?
95 % of control

The origin of these recorded values is PubChem BioAssay AID330.
